Tested on: U1 cells
Assay: XTT viability (TC50) in TNF induced U1 cells
Format: cell-based
Details: read-out: TC50 (50% cytotoxicity)
QUANTITY_KIND: CC50

Data request: Look up CC50 for this compound: CCCCCc1cc(O)cc(O)c1
Data returned: 77.5 µM

---

Tested on: Monocyte/macrophage
Test: XTT viability (TC50) in monocyte/macrophage assay
Item-by-item account of TC50 (50% cytotoxicity), column head blank
Write it as a number; the unit µg/mL goes unstated.

Data request: Look up TC50 (50% cytotoxicity), column head blank for this compound: CCCCCc1cc(O)c2c(c1)OC(C)(C)c1ccc(C)cc1-2 [Cannabinol]
Data returned: 13.07

Data request: Now the same for CCCCCc1cc(O)c2c(c1)OC(C)(C)C1CCC(C(=O)O)=CC21 (centres unmarked)
Data returned: 76.73

Data request: Now the same for C=C(C)[C@@H]1CCC(C)=C[C@H]1c1c(O)cc(CCCCC)cc1O [Cannabidiol, reference compound]
Data returned: 22.87

---

Tested on: PC-3 (prostate)
Assay: Antineoplastic assessment, SRB assay, PC-3
Type: cell-based
Conditions: PC-3 (prostate), SRB, five days; read-out: IC50 Molar Values
Protocol: Cell Lines. Cell lines indicated in table 2 were propagated under sterile conditions in RPMI 1640 or DMEM with 10% fetal calf serum, 2 mM L-glutamine, and sodium bicarbonate (“complete medium”) and incubated at 37° C. 5% CO2 and 95% humidity. […] The cell count was determined and viability was measured with propidium iodide staining. […] Five days after treatment, the cells were analyzed for antineoplastic effects using the SRB assay to calculate IC50 for each treatment.
QUANTITY_KIND: pIC50
Just so you know, pIC50 here is -log10 of the concentration in molar units; reply with that number alone.

Data request: Look up pIC50 for this compound: CCCCCc1cc(O)cc(O)c1 [Olivitol]
Data returned: 3.70

---

Item-by-item account of IC50
Test system: HIV-1
Assay: microbe, parasite or virus in culture
Conditions: Human immunodeficiency virus 1, PBMC, 168 h, read-out: IC50 (50% inhibition of virus replication)
Write it as a number; the unit µM goes unstated.

Study these solved cases before continuing.
Data request: Look up IC50 for this compound: COc1cc(O)cc(C(C)(C)CCCC(C)C)c1
Data returned: 39.9

Data request: Now the same for COc1cc(C(C)(C)CCCC(C)C)cc(OC)c1O
Data returned: 15.8

Further cases:
Data request: Look up IC50 for this compound: CC(C)CCCC(C)(C)c1cc(O)cc(O)c1
Data returned: 14.8

---

Test system: SNB-7 (CNS)
Assay: Antineoplastic assessment, SRB assay, SNB-7
Type: cell-based
Conditions: SNB-7 (CNS), SRB, five days; read-out: IC50 Molar Values
QUANTITY_KIND: IC50 (µM)
Write it as a number; the unit µM goes unstated.

Data request: IC50 of CCCCCc1cc(O)cc(O)c1 on SNB-7 (CNS)?
Data returned: 220

---

System: U1 cells
Assay: XTT viability (TC50) in TNF induced U1 cells
Assay type: cell-based
QUANTITY_KIND: TC50 (50% cytotoxicity) (µg/mL)
Write it as a number; the unit µg/mL goes unstated.

Data request: Look up TC50 (50% cytotoxicity) for this compound: CCCCCc1cc(O)c2c(c1)OC(C)(C)C1CCC(C(=O)O)=CC21 (centres unmarked)
Data returned: 23.71

Data request: Now the same for CCCCCc1cc(O)c2c(c1)OC(C)(C)c1ccc(C)cc1-2 [Cannabinol]
Data returned: 5.26

Data request: Now the same for CCCCCc1cc(O)c2c(c1)OC(C)(C)[C@@H]1CCC(C)=C[C@@H]21 [A9 tetrahydrocannabinaol, reference compound]
Data returned: 0.088

Please examine the following record next.
Data request: Look up TC50 (50% cytotoxicity) for this compound: C=C(C)[C@@H]1CCC(C)=C[C@H]1c1c(O)cc(CCCCC)cc1O [Cannabidiol, reference compound]
Data returned: 7.8
